Tested on: HOP-62 NSCLC
Assay: NCI-60 one-dose screen, 48 h
Settings: 10 µM unless noted
This is part of a sample that, as a whole, favours compounds with a hit. Of some 83,000 tested, about 20% had one in any assay. Activity calls are given as the source filed them. The calls were made as follows: active = growth percent below 10; inactive = the rest.
Entry note: the call must match one of active, inactive

{"structure_string": "O=C(/C=C\\c1ccc2c(c1)OCO2)/C=C/c1ccc2c(c1)OCO2", "label_value": "inactive"}
{"structure_string": "Brc1cnc2[nH]cc(-c3nnc(-c4ccccc4)o3)c2c1", "label_value": "inactive"}
{"structure_string": "CCNCCCn1c2c(c3ccc([N+](=O)[O-])cc3c1=O)C(=O)c1cc(OC)cnc1-2", "label_value": "active"}
{"structure_string": "C=C1C(=O)O[C@H]2[C@H]1CC/C(COC(=O)NCCc1c[nH]c3ccccc13)=C\\CC[C@@]1(C)O[C@@H]21", "label_value": "inactive"}
{"structure_string": "CCc1cccc(CC)c1NC(=O)c1sc2nc3c(cc2c1N)CCCC3", "label_value": "inactive"}

Consider the record given below.
What outcome does the record of this test show for "Cc1nn(-c2ccc(Br)cc2)c2nc3[nH]c(=O)[nH]c(=O)c3nc12" ?
inactive

====

Tested on: HOP-62 NSCLC
Experiment: NCI-60 one-dose screen, 48 h (100 = growth as untreated, 0 = no growth, -100 = all killed)
Conditions: 10 µM unless noted
Compounds without any hit were thinned out: in the full panel of roughly 83,000, 20% have a hit.
property_name: growth (%)
Answers are plain numbers, in %.

For each of the molecules below, note its growth.
1. O=c1c2sc3ncc(Br)cc3c2ncn1-c1cccc(Cl)c1
2. Fc1ccc2nc(-c3cc(-c4ccc5c(c4)OCO5)n[nH]3)[nH]c2c1
3. O=C(Nc1ccc(/C=C2\SC(=O)N(Cc3ccc(OC(F)(F)F)cc3)C2=O)cc1)c1ccc(Cl)c([N+](=O)[O-])c1
4. O=c1c(CNc2ccc(S(=O)(=O)Nc3ncccn3)cc2)coc2ccccc12
5. c1ccc2[nH]c(-c3cc(-c4ccc5c(c4)OCO5)n[nH]3)nc2c1

1: 60.3; 2: 75.5; 3: 57.8; 4: 93; 5: 62.6

====

System: A549/ATCC NSCLC
Assay: NCI-60 one-dose screen, 48 h (100 = growth as untreated, 0 = no growth, -100 = all killed)
Conditions: 10 µM unless noted
This is part of a sample that, as a whole, favours compounds with a hit. Of some 83,000 tested, about 20% had one in any assay.
property_name: growth (%)
Numbers only, in %.

For orientation, consider the following solved cases.
{"compound": "Nc1c2c(nc3ccc(Cl)cc13)CC(c1ccccc1)CC2=O (stereo not given)", "unit_label": "%", "assay_value": 56.7}
{"compound": "O=C1c2cccc3cccc(c23)C(=O)N1CC#Cc1ccc2c3c(cccc13)C(=O)N(CCN1CCNCC1)C2=O", "unit_label": "%", "assay_value": 109}
{"compound": "Cn1c2c(c3ccc(Cl)cc31)-n1cccc1C2=O", "unit_label": "%", "assay_value": 75.1}
{"compound": "CCC1C(=O)COC1=O (stereo not given)", "unit_label": "%", "assay_value": 64.1}

Okay, next one:
Tell me growth reported for "COc1cccc(-c2nn(-c3ccccc3)cc2-c2ccnc(NCCCNS(=O)(=O)c3ccc(C(F)(F)F)cc3)c2)c1"
24.4

====

Test system: OVCAR-8 ovarian
Test: NCI-60 one-dose screen, 48 h (100 = growth as untreated, 0 = no growth, -100 = all killed)
Conditions: 10 µM unless noted
This is part of a sample that, as a whole, favours compounds with a hit. Of some 83,000 tested, about 20% had one in any assay. Active and inactive are the calls of the source. Rule for the calls: active = growth percent below 10; inactive = the rest.
For each record, write down the corresponding growth.

For each of the molecules below, note its growth.
1. NC(=O)NCC1CCCCC1
2. Cn1cc(-c2csc(-c3c[nH]c4ccccc34)n2)c2cccnc21
3. COc1ccc2c3c(c4ccccc4cc13)C(=O)N(CCN(C)CCN)C2=O
4. O=C1CN(c2ccccc2)C(=O)C1C(=O)Nc1ccc(Cl)c(Cl)c1 (stereo unspecified)

114% (inactive)
39.2% (inactive)
-52.5% (active)
-9.87% [100 µM] (active)

For each of the molecules below, note its growth.
1. O=C1C=C(C(O)c2ccc(O)cc2)C(=O)c2ccccc21 (stereo unspecified)
2. O=c1[nH]ncc(Br)c1Br

104% (inactive)
7.24% (active)

====

System: SR leukemia
Experiment: NCI-60 one-dose screen, 48 h
Conditions: 10 µM unless noted
This is part of a sample that, as a whole, favours compounds with a hit. Of some 83,000 tested, about 20% had one in any assay. Activity calls are given as the source filed them. Rule for the calls: active = growth percent below 10; inactive = the rest.
Entry note: the call must match one of true (1) for active, false (0) for inactive

{"compound": "S=c1[nH]nc2ccccn12", "label_value": "false (0)"}
{"compound": "COc1ccc(C2(Cl)c3ccccc3N(c3ccccc3)c3ccccc32)cc1", "label_value": "true (1)"}
{"compound": "COC1=C(Br)C(=O)C(OC)=C(Br)C1=O", "label_value": "false (0)"}
{"compound": "C/C(=C(/c1ccccc1)c1ccc(N2C(=O)c3cccc4c(NCc5ccccc5)ccc(c34)C2=O)cc1)c1ccccc1", "label_value": "false (0)"}
{"compound": "O=C1c2cc3c(cc2-c2c1c1ccc(Cl)cc1c(=O)n2C[C@H](O)[C@@H](O)[C@H](O)CO)OCO3", "label_value": "true (1)"}
{"compound": "C=C1C(=O)O[C@H]2[C@H]1CC/C(COC(=O)NCc1c[nH]c3ccccc13)=C\\CC[C@@]1(C)O[C@@H]21", "label_value": "true (1)"}
{"compound": "O=C(Nc1ccc(/C=C2\\SC(=O)N(Cc3ccc(OC(F)(F)F)cc3)C2=O)cc1)c1ccc(Cl)c([N+](=O)[O-])c1", "label_value": "true (1)"}
{"compound": "CC(=O)c1c(C)[nH]c(-c2nc3ccc(N4CCN(C)CC4)cc3[nH]2)c1-c1ccc(OCC2CCOCC2)cc1", "label_value": "false (0)"}

What outcome does the record of this test show for "CCOc1ccc(NC(=O)c2ccccc2-c2ccccc2C(=O)O)cc1" ?
false (0)

What outcome does the record of this test show for "COc1cc2nc(Cl)nc(Nc3cccc(C(=O)/C=C/c4ccc(F)cc4)c3)c2cc1OC" ?
false (0)

====

System: SN12C renal
Assay: NCI-60 one-dose screen, 48 h (100 = growth as untreated, 0 = no growth, -100 = all killed)
Conditions: 10 µM unless noted
About 83,000 compounds went through this panel and 20% of them were active in at least one assay; those are over-represented in the sample as a whole.
Mark Yes for growth under 60%, No if at or over.

These recorded examples may help you get a feel for the data.
{"structure_string": "COc1cccc(-c2nn(-c3ccccc3)cc2-c2ccnc(NCCCNS(=O)(=O)c3ccc(Cl)cc3)c2)c1", "label_value": "Yes"}
{"structure_string": "Nc1c(C(=O)Nc2c(Cl)cccc2Cl)sc2nc3c(cc12)C(=O)CCC3", "label_value": "Yes"}
{"structure_string": "Brc1cnc2[nH]cc(-c3nnc(-c4ccccc4)o3)c2c1", "label_value": "No"}
{"structure_string": "CCN1CCN(C(=O)[C@]23CC[C@@H](C)[C@H](C)[C@H]2C2=CC[C@@H]4[C@@]5(C)C/C(=C/c6cccc(OC)c6OC)C(=O)C(C)(C)[C@@H]5CC[C@@]4(C)[C@]2(C)CC3)CC1", "label_value": "Yes"}
{"structure_string": "COc1cc2c(cc1-c1c(C)noc1C)ncc1nc(C3CCCCC3)n([C@@H](C)COC(F)F)c12", "label_value": "Yes"}
{"structure_string": "CCOc1ccc(NC(=O)c2ccccc2-c2ccccc2C(=O)O)cc1", "label_value": "No"}

Consider the record given below.
Field: below-cutoff. Rule: recorded growth strictly less than 60%. Subject: "O=S(=O)(NCCNc1cc(-c2cn(-c3ccccc3)nc2-c2cccc(O)c2)ccn1)c1cccc(F)c1"
Yes

====

Test system: RPMI-8226 leukemia
Assay: NCI-60 one-dose screen, 48 h
Conditions: 10 µM unless noted
The panel holds about 83,000 compounds, 20% with a hit somewhere; the sample as a whole holds those more often. Calls of active or inactive are those of the source. The calls were made as follows: active = growth percent below 10; inactive = the rest.
Entry note: the call must match one of active, inactive

{"compound": "COc1ccc2c3c(c4ccccc4cc13)C(=O)N(CCN(C)CCN)C2=O", "label_value": "active"}
{"compound": "COc1cc2c(cc1-c1c(C)noc1C)ncc1nc(C3CCCCC3)n([C@@H](C)COC(F)F)c12", "label_value": "inactive"}
{"compound": "CC(C)(C)n1cc(-c2ccnc(NCCCNS(=O)(=O)c3ccc(Cl)cc3)c2)c(-c2cccc(F)c2)n1", "label_value": "inactive"}
{"compound": "C#CCN=C[C@]12CC[C@@H](C(=C)C)[C@@H]1[C@H]1CC[C@@H]3[C@@]4(C)CCC(=O)C(C)(C)[C@@H]4CC[C@@]3(C)[C@]1(C)CC2", "label_value": "inactive"}
{"compound": "Oc1cc(/C=C/c2nc(N3CCOCC3)c3cc(Cl)c(Cl)cc3n2)cc(O)c1O", "label_value": "inactive"}
{"compound": "CC(C)c1cc(C(=O)O)c(O)c(C(C)C)c1.CC(C)c1cc(C(=O)O)c(O)c(C(C)C)c1.[Mn]", "label_value": "inactive"}
{"compound": "Cc1ccc2c(c1)c(-c1nc(-c3c[nH]c4ncccc34)cs1)cn2C", "label_value": "inactive"}
{"compound": "CC(=O)n1c(/C(C#N)=C/c2ccc(N(C)C)cc2)cc2ccccc21", "label_value": "inactive"}

What outcome does the record of this test show for "COc1cc2c3c(c4c5ccccc5[nH]c4c2c(OC)c1OC)C(=O)N(O)C3=O" ?
inactive

What outcome does the record of this test show for "CCCCCCCC(=O)SCC/C=C/[C@@H]1CC(=O)NCc2cccc(n2)CN(Cc2ccc(Cl)cc2)CC(=O)N[C@@H](C(C)C)C(=O)O1" ?
active

What outcome does the record of this test show for OCC1OC(n2cnc3c(Cl)ncnc32)CC1O (configuration not stated) ?
inactive

What outcome does the record of this test show for "CCCCC[C@H]1CC=C2C(=O)C=C[C@@H]2CC=CCCCC(=O)O[C@@H](CCCCC)CC=C2C(=O)C=C[C@@H]2CC=CCCCC(=O)O[C@@H](CCCCC)CC=C2C(=O)C=C[C@@H]2CC=CCCCC(=O)O1" ?
active
